# Experiment: photoluminescence quantum yield (fraction); solvent given as SMILES
# Condition Summary: in CC#N
Reported photoluminescence quantum yield values are given for each entry in this list.
I only need the number, thanks.

Solved entries (count: 3):
# Smiles Structure, photoluminescence quantum yield
rows = [
    ("CCN(CC)c1ccc2cc3ccc(=[N+](CC)CC)cc-3oc2c1", 0.85),
    ("CN(C)c1c2ccccc2cc2ccccc12", 0.007),
    ("Cc1cc2c(ccc3c(C)[n+](C)c(C)cc32)c(C)[n+]1C", 0.29),
]

Reported photoluminescence quantum yield of "Cc1ccc(C2=C3C=C(I)C=[N+]3[B-](F)(F)n3c2cc(I)c3I)cc1" : 0.02

Reported photoluminescence quantum yield of "COc1ccc(-c2csc(/C(C#N)=C/c3ccc(Cl)cc3)n2)cc1" : 0.048

Reported photoluminescence quantum yield of "Fc1ccc(-[c+]2c3ccccc3sc3ccccc32)cc1" : 0.018

Reported photoluminescence quantum yield of "CC(C)(C)c1ccc2c(c1)c1cc(C(C)(C)C)ccc1n2-c1ccc(C#Cc2ccc(C=C(C#N)C#N)cc2)cc1" : 0.33

Reported photoluminescence quantum yield of "COc1ccc(-n2c(C)ccc2C)cc1" : 0.026

Reported photoluminescence quantum yield of "N#Cc1cc2ccc(O)cc2oc1=O" : 0.00059

Reported photoluminescence quantum yield of "CNc1cccc2c1C(=O)c1ccccc1C2=O" : 0.0026

Reported photoluminescence quantum yield of "COC(=O)c1nc2cnc(N)nc2n1Cc1ccccc1" : 0.55

Reported photoluminescence quantum yield of "O=Cc1cc(O)ccc1O" : 0.0001

====

# Experiment: photoluminescence quantum yield (fraction); solvent given as SMILES
# Condition Summary: in CCO
Please enter 1.0 where photoluminescence quantum yield is greater than or equal to 0.2, and 0.0 where it is lower.

Below, 3 compounds whose answers are already recorded.
# Smiles Structure, Cat
measured = [
    ("CCOC(=O)c1cc(C(=O)OCC)c2cc(O)ccc2n1", 0.0),
    ("c1coc(-c2nc3ccccc3[nH]2)c1", 1.0),
    ("Cc1cc2c(o1)c(C)cc1ccc(=O)oc12", 0.0),
]

// query Is photoluminescence quantum yield for "N#Cc1ccc(N)cc1" at or above 0.2?
// result 0.0

// query Is photoluminescence quantum yield for "COc1ccc(-c2c3ccc(=[N+]4CCCCC4)cc-3oc3cc(N4CCCCC4)ccc23)cc1" at or above 0.2?
// result 1.0

// query Is photoluminescence quantum yield for "c1ccc(-c2c3ccc(=[N+]4CCCCC4)cc-3oc3cc(N4CCCCC4)ccc23)cc1" at or above 0.2?
// result 1.0

====

# Experiment: photoluminescence quantum yield (fraction); solvent given as SMILES
# Condition Summary: in CC#N
Reported photoluminescence quantum yield values are given for each entry in this list.
I only need the number, thanks.

Solved entries (count: 6):
# Compound, photoluminescence quantum yield
data = [
    ("CCOC(=O)C1=C(C)NC2=C(C(=O)c3ccccc32)C1c1ccc(N(C)C)cc1 (centres undefined)", 0.3),
    ("N#Cc1cc2nc3c(nc2cc1C#N)C1c2ccc(N(c4ccccc4)c4ccccc4)cc2C3c2ccc(N(c3ccccc3)c3ccccc3)cc21", 0.01),
    ("Cc1cc(C)c(B(c2c(C)cc(C)cc2C)c2cc3cc(N(C)C)c4ccccc4c3c3c2ccc2ccccc23)c(C)c1", 0.13),
    ("COc1ccc(OC)c(C=O)c1", 0.0001),
    ("CCOC(=O)CN1C(=O)C2=C(c3ccccc3)N(CC(=O)OCC)C(=O)C2=C1c1ccccc1", 0.31),
    ("COc1ccc(/C=C/C=C/C2=NC3C(=O)NC(N)=NC3N2[C@H]2C[C@H](O)[C@@H](CO)O2)cc1 (some centres undefined)", 0.68),
]

Reported photoluminescence quantum yield of "CSc1sc(C(=O)c2ccccc2)c2nn[nH]c(=O)c12" : 0.013

Reported photoluminescence quantum yield of "CNc1ncc2nc(C(=O)OC)n(Cc3ccccc3)c2n1" : 0.66

Reported photoluminescence quantum yield of "CCOC(=O)CC[N+]1=c2cc3c(cc2CCC1)=Cc1c(c2ccc(N(C)C)cc2oc1=O)O3" : 0.217

====

# Experiment: photoluminescence quantum yield (fraction); solvent given as SMILES
# Condition Summary: in ClCCl
Rule: measured photoluminescence quantum yield below 0.4 gets Y; anything equal to or greater than 0.4 gets N.

# Smiles Structure, Cat
data = [
    ("O=S1(=O)c2ccc(-c3c4ccccc4cc4ccccc34)cc2-c2cc(-c3c4ccccc4cc4ccccc34)ccc21", "Y"),
]

// query Decide: photoluminescence quantum yield of "CCCCN(CCCC)c1ccc(/C=C/c2ccc3nc(/C=C/c4ccc(N(C)C)cc4)c(-c4ccccc4)nc3c2)cc1" strictly below 0.4?
// result Y

// query Decide: photoluminescence quantum yield of "C[Si]1(C)O[Si](C)(C)c2cc3nc4ccc([N+](=O)[O-])cc4c(-c4ccccc4)c3cc2[Si](C)(C)O1" strictly below 0.4?
// result N

====

# Experiment: photoluminescence quantum yield (fraction); solvent given as SMILES
# Condition Summary: in CCCCCC
Reported photoluminescence quantum yield values are given for each entry in this list.
I only need the number, thanks.

Solved entries (count: 4):
# Smiles Structure, photoluminescence quantum yield
measured = [
    ("Cc1ccc(C)n1-c1cccc(C#N)c1", 0.004),
    ("F[B-]1(F)n2cccc2C(c2c3ccccc3cc3ccccc23)=C2C=CC=[N+]21", 0.135),
    ("CN(C)/C=N\\c1ccc2c3c(cccc13)C(=O)c1ccccc1-2", 0.31),
    ("Cc1cc(C)c(B(c2cc3c4c(c(B(c5c(C)cc(C)cc5C)c5c(C)cc(C)cc5C)cc5c4c2CCC5)CCC3)c2c(C)cc(C)cc2C)c(C)c1", 0.9),
]

Next:
Reported photoluminescence quantum yield of "c1cc2ccc3ccc(-n4c5ccccc5c5ccccc54)c4ccc(c1)c2c34" : 0.26

====

# Experiment: photoluminescence quantum yield (fraction); solvent given as SMILES
# Condition Summary: in c1ccccc1
Observed Property: photoluminescence quantum yield
I only need the number, thanks.

Solved entries (count: 2):
# Smiles Structure, photoluminescence quantum yield
rows = [
    ("COc1ccc2ccc3oc(=O)c(-c4ccccc4)nc3c2c1", 0.668),
    ("O=C1OC(=O)c2ccc(N(c3ccccc3)c3ccc4ccccc4c3)c3cccc1c23", 0.0162),
]

Reported photoluminescence quantum yield of "CN(C)C(=O)c1ccc(-c2nc3ccc(N(C)C)cc3s2)cc1" : 0.98

Reported photoluminescence quantum yield of "O=C1c2ccccc2-c2ccccc21" : 0.0078

====

Reported photoluminescence quantum yield values are given for each entry in this list.
# Experiment: photoluminescence quantum yield (fraction); solvent given as SMILES
# Condition Summary: in CC#N
I only need the number, thanks.

Reported photoluminescence quantum yield of "Cn1nc(-c2ccccc2)c2n[nH]nc2/c1=N\c1ccccn1" : 0.05

Reported photoluminescence quantum yield of "C(=C\c1ccc2ccccc2c1)/c1ccc(Nc2ccccc2)cc1" : 0.28

Reported photoluminescence quantum yield of "Nc1ccc2cn[nH]c2c1" : 0.33

Reported photoluminescence quantum yield of "N#Cc1nn(-c2ccc(Cl)cc2)nc1N1CCCC1" : 0.829

Reported photoluminescence quantum yield of "c1ccc(-[c+]2c3ccccc3sc3ccccc32)cc1" : 0.02

Reported photoluminescence quantum yield of "CCCCCCCCN1c2ccc(C#Cc3cc(C(F)(F)F)cc(C(F)(F)F)c3)cc2Sc2cc(C=O)ccc21" : 0.53

Reported photoluminescence quantum yield of "C/C=C/c1cccc(OC)c1" : 0.24

Reported photoluminescence quantum yield of "C(=C\c1c2ccccc2cc2ccccc12)/c1ccc2ccccc2n1" : 0.04

Reported photoluminescence quantum yield of "C(=C\c1c2ccccc2cc2ccccc12)/c1ccccc1" : 0.45

Reported photoluminescence quantum yield of "Cc1cc(-c2ccccc2C)cc(C)[o+]1" : 0.1

Reported photoluminescence quantum yield of "CN(C)c1ccc(C(=O)Nc2ccc(F)cc2)cc1" : 0.0104

Reported photoluminescence quantum yield of "CSc1ccc2c(c1)N(CCCN(C)C)c1ccccc1S2" : 0.003

====

# Experiment: photoluminescence quantum yield (fraction); solvent given as SMILES
# Condition Summary: in C1COCCO1
Reported photoluminescence quantum yield values are given for each entry in this list.
I only need the number, thanks.

Solved entries (count: 3):
# Molecule, photoluminescence quantum yield
rows = [
    ("CCCCCCCN1C(=CC2=C([O-])C(=CC3=[N+](CCCCCCC)c4ccccc4C3(C)C)C2=C(C#N)C#N)Sc2ccccc21", 0.16),
    ("O=C1/C(=C2\\Sc3ccc(S(=O)(=O)Cl)cc3C2=O)Sc2ccc(S(=O)(=O)Cl)cc21", 0.949),
    ("CC(=O)c1ccc(/C=C/C=C/C2=NC3C(=O)NC(N)=NC3N2[C@H]2C[C@H](O)[C@@H](CO)O2)cc1 (stereo not given in full)", 0.59),
]

Reported photoluminescence quantum yield of "CN1C(=O)/C(=C/c2ccncc2)N=C1c1ccccc1" : 0.466

Reported photoluminescence quantum yield of "CC(=O)Nc1ccc(C2=C/C(=C\c3ccc(C#N)cc3)C(=O)O2)cc1" : 0.437

Reported photoluminescence quantum yield of "COc1ccc(-c2ccc(-c3ccc(F)cc3)cc2)cc1" : 0.57
